Where these numbers come from: paper PMC10012049

# EXPERIMENTAL TARGET: AMAN-2 (Golgi α-mannosidase II) (Caenorhabditis elegans, UniProt Q2PJ74)
# Sequence (Q2PJ74 entry or part of it): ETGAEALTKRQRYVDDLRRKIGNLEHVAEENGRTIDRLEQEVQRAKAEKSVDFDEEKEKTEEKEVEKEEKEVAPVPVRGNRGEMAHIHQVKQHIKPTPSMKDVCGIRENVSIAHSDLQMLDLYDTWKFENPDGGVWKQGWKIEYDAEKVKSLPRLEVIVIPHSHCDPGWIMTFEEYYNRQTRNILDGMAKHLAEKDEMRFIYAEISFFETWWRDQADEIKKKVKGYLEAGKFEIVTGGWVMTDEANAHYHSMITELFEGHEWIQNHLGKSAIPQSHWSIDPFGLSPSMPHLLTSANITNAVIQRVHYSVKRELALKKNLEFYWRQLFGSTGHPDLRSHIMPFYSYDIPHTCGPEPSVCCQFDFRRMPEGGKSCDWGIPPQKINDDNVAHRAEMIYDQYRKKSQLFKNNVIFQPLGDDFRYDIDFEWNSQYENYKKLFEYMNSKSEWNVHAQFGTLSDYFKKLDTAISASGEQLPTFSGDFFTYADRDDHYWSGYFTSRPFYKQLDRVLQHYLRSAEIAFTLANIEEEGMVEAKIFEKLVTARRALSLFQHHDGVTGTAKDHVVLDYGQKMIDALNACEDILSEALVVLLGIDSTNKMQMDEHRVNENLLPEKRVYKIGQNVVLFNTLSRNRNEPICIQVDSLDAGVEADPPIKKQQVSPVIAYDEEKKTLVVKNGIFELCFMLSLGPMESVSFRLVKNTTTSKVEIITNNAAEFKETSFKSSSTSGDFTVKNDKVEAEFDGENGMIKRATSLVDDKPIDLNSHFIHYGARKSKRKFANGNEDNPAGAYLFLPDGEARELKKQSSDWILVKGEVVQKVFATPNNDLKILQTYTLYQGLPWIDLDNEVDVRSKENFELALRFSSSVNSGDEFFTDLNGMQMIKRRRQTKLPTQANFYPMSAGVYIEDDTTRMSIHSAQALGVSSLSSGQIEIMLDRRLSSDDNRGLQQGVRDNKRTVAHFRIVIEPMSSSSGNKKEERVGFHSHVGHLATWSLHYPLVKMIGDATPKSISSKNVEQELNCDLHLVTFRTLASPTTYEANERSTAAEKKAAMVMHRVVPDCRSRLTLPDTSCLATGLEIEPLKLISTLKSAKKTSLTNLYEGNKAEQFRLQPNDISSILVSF
# ASSAY: α-mannosidase inhibition assay with pNP-Man substrate, AMAN-2
# Type: biochemical
# CONDITION DESCRIPTION: Dixon plots, pNP-Man 0.5-4 mM, pH 6.0
I'd appreciate it if you could supply pKi values for the items below.
One number for each entry, as −log10 of the molar value.

[[record]]
compound = "C[C@@H](O)[C@H]1NC[C@@H](O)[C@H]1O"
observed_measurement = 6.72

[[record]]
compound = "C[C@@H](O)[C@@H]1[C@H](O)[C@H](O)CN1Cc1ccc2ccccc2c1"
observed_measurement = 4.74

[[record]]
compound = "C[C@@H](O)[C@@H]1[C@H](O)[C@H](O)CN1Cc1ccc(I)cc1"
observed_measurement = 4.47

[[record]]
compound = "OC[C@@H](O)[C@H]1NC[C@@H](O)[C@H]1O [DIM, 1,4-dideoxy-1,4-imino-ᴅ-mannitol, reference compound]"
observed_measurement = 6.17


Proceed to the following item.
Simply: C[C@@H](O)[C@@H]1[C@H](O)[C@H](O)CN1Cc1ccccc1 , AMAN-2 (Golgi α-mannosidase II) (Caenorhabditis elegans, UniProt Q2PJ74), pKi = 4.24

###

# EXPERIMENTAL TARGET: JBMan (Jack bean α-mannosidase) (Canavalia ensiformis, UniProt C0HJB3)
# Construct: purchased Sigma
# Sequence (C0HJB3 whole entry): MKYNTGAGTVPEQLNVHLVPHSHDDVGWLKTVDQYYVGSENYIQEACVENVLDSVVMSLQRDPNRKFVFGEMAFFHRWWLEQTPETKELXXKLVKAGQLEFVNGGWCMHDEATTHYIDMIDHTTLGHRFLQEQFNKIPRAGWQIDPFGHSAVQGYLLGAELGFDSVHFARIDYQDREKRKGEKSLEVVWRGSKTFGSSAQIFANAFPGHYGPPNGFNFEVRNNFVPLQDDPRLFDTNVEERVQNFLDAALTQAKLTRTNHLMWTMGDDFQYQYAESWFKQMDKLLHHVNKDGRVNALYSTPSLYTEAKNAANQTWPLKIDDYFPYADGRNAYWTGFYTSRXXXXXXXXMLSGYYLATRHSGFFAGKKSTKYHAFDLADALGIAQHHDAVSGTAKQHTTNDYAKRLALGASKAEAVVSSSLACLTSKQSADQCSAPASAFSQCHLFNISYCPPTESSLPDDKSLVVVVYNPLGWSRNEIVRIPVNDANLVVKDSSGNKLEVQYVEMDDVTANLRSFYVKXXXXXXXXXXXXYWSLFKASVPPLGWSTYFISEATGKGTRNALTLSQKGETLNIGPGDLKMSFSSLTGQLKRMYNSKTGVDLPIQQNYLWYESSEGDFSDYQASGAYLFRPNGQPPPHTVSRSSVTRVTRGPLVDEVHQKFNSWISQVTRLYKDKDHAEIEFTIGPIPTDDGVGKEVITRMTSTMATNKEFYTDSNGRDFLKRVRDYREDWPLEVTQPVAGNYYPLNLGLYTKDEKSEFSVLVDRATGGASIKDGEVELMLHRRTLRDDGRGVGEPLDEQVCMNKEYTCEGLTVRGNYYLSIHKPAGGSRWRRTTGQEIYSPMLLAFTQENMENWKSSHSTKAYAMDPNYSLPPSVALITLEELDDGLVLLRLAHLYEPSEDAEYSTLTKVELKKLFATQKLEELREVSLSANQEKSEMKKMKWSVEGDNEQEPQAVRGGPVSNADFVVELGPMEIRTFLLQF
# ASSAY: α-mannosidase inhibition assay with pNP-Man substrate, JBMan
# Assay type: biochemical
# CONDITION DESCRIPTION: 2 mM pNP-Man, pH 5.0, 37 °C
pIC50: −log10 of the molar value.
ENDPOINT LABEL: pIC50

Worked set:
[[record]]
compound = "C[C@H](O)[C@@H]1[C@H](O)[C@H](O)CN1Cc1ccc(I)cc1 [compound 18]"
experimental_target = "JBMan (Jack bean α-mannosidase) (Canavalia ensiformis, UniProt C0HJB3)"
observed_measurement = "< 2.40"

[[record]]
compound = "C[C@H](O)[C@H]1NC[C@@H](O)[C@H]1O [compound 20]"
experimental_target = "JBMan (Jack bean α-mannosidase) (Canavalia ensiformis, UniProt C0HJB3)"
observed_measurement = 3.98


What the record says about C[C@H](O)[C@@H]1[C@H](O)[C@H](O)CN1Cc1ccccc1 [compound 17] : pIC50 is < 2.40

###

I'd appreciate it if you could supply pIC50 values for the items below.
# EXPERIMENTAL TARGET: UniProtKB Q9VKV1
# ASSAY: α-mannosidase inhibition assay with pNP-Man substrate, LManII
# Assay type: biochemical
# CONDITION DESCRIPTION: 2 mM pNP-Man, pH 5.2, 37 °C; read-out: IC50 LManII
Numbers only, as −log10 of the molar value.

[[record]]
compound = "C[C@@H](O)[C@@H]1[C@H](O)[C@H](O)CN1Cc1ccccc1"
experimental_target = "UniProtKB Q9VKV1"
observed_measurement = 3.30

[[record]]
compound = "OC[C@@H](O)[C@H]1NC[C@@H](O)[C@H]1O [DIM, 1,4-dideoxy-1,4-imino-ᴅ-mannitol, reference compound]"
experimental_target = "UniProtKB Q9VKV1"
observed_measurement = 5.59


Proceed to the following item.
What the record says about C[C@H](O)[C@H]1NC[C@@H](O)[C@H]1O : pIC50 is 3.53

###

# EXPERIMENTAL TARGET: GMIIb (Golgi α-mannosidase) (Drosophila melanogaster, UniProt Q9VF33)
# Sequence (Q9VF33 entry or part of it): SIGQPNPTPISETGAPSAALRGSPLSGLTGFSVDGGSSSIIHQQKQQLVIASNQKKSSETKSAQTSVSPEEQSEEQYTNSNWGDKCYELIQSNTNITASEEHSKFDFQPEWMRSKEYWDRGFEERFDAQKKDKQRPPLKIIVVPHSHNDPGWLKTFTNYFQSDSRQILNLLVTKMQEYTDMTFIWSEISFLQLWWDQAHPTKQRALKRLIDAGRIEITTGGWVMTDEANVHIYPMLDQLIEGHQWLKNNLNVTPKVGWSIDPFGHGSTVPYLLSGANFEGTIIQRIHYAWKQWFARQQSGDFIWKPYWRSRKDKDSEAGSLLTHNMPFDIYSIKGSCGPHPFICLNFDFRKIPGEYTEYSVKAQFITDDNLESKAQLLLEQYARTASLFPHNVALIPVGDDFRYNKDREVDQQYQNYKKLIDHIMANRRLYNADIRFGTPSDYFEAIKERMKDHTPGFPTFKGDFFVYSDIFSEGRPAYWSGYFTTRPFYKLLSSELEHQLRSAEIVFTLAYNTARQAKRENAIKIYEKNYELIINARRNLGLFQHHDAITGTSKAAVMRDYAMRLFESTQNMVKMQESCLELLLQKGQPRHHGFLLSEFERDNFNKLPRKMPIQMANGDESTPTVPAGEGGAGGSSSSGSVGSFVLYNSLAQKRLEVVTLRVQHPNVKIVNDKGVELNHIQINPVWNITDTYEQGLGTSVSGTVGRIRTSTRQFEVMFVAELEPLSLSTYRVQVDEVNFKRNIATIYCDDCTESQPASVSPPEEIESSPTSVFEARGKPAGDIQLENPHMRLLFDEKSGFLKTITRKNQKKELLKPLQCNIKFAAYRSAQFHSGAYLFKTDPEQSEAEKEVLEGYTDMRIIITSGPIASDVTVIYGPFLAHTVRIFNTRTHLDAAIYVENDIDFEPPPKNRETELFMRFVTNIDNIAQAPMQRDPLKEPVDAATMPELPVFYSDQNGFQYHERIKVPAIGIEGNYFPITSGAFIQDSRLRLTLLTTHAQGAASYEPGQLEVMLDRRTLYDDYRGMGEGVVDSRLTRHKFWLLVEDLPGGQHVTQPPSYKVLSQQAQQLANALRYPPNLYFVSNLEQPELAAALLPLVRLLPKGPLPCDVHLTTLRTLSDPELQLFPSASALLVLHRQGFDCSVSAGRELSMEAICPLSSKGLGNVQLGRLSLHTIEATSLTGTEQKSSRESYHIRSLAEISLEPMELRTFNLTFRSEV
# ASSAY: α-mannosidase inhibition assay with pNP-Man substrate, GMIIb
# Format: biochemical
# CONDITION DESCRIPTION: 2 mM pNP-Man, pH 6.0, 0.5 mM CoCl2, 37 °C; read-out: IC50 GMIIb
pIC50: −log10 of the molar value.
Label True for high-side pIC50 (at or above 5) and False for low-side pIC50 (below it).

Illustrative cases are given below, each with its answer.
[[record]]
smiles_entry = "C[C@H](O)[C@H]1NC[C@@H](O)[C@H]1O"
class_name = "False"

[[record]]
smiles_entry = "C[C@@H]1[C@H](O)[C@H](O)CN1Cc1ccc2ccccc2c1"
class_name = "False"

[[record]]
smiles_entry = "C[C@H](O)[C@@H]1[C@H](O)[C@H](O)CN1Cc1ccc(I)cc1"
class_name = "False"

[[record]]
smiles_entry = "C[C@@H](O)[C@H]1NC[C@@H](O)[C@H]1O"
class_name = "True"


For the next question, use this molecule.
Is it the case that C[C@H](O)[C@@H]1[C@H](O)[C@H](O)CN1Cc1ccc2ccccc2c1 has pIC50 reaching or exceeding 5?
False

###

I'd appreciate it if you could supply pIC50 values for the items below.
# EXPERIMENTAL TARGET: LManII (lysosomal α-mannosidase) (Drosophila melanogaster, UniProt Q9VKV1)
# Sequence (Q9VKV1 entry or part of it): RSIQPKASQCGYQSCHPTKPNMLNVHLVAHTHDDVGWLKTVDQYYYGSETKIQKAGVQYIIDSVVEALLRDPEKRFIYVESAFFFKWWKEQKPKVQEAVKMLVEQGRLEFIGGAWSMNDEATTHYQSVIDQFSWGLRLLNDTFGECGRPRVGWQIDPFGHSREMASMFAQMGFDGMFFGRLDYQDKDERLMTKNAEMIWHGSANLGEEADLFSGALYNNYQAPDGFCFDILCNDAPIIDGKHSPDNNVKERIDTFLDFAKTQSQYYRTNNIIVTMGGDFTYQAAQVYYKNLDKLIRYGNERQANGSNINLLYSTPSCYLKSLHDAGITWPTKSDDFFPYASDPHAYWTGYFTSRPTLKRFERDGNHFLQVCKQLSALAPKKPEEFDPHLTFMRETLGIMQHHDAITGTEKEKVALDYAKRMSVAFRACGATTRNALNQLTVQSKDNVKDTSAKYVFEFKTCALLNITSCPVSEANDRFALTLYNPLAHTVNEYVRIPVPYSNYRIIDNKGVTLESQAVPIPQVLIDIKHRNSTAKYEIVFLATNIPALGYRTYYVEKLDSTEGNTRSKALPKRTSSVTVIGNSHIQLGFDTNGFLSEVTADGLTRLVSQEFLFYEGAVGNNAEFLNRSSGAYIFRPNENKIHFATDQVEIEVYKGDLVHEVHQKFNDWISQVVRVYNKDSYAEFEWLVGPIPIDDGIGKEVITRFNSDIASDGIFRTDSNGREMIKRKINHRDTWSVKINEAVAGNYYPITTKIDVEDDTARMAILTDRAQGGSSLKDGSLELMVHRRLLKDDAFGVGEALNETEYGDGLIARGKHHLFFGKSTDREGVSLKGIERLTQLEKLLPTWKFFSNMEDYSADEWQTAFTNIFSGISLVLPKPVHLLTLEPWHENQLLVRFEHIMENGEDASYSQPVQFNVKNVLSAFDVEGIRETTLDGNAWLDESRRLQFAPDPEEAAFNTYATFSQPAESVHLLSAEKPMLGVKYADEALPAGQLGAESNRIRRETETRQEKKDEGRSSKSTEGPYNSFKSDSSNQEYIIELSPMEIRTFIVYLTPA
# ASSAY: α-mannosidase inhibition assay with pNP-Man substrate, LManII
# Assay type: biochemical
# CONDITION DESCRIPTION: 2 mM pNP-Man, pH 5.2, 37 °C; read-out: IC50 LManII
One number for each entry, as −log10 of the molar value.

[[record]]
smiles_entry = "C[C@@H](O)[C@@H]1[C@H](O)[C@H](O)CN1Cc1ccc(I)cc1"
endpoint_label = "pIC50"
observed_measurement = 3.39


Look at each compound and report its pIC50.
1. C[C@@H](O)[C@H]1NC[C@@H](O)[C@H]1O
2. C[C@@H](O)[C@@H]1[C@H](O)[C@H](O)CN1Cc1ccc2ccccc2c1

6.09
3.93

###

# EXPERIMENTAL TARGET: UniProt Q2PJ74
# ASSAY: α-mannosidase inhibition assay with pNP-Man substrate, AMAN-2
# Format: biochemical
ENDPOINT LABEL: IC50 (µM)
Answers are plain numbers, in µM.

What the record says about C[C@H]1NC[C@@H](O)[C@H]1O : IC50 is 415

###

# EXPERIMENTAL TARGET: JBMan (Jack bean α-mannosidase) (Canavalia ensiformis, UniProt C0HJB3)
# Construct: purchased Sigma
# ASSAY: α-mannosidase inhibition assay with pNP-Man substrate, JBMan
# Format: biochemical
# CONDITION DESCRIPTION: 2 mM pNP-Man, pH 5.0, 37 °C
ENDPOINT LABEL: pIC50
One number for each entry, as −log10 of the molar value.

Worked set:
[[record]]
molecule = "C[C@@H](O)[C@@H]1[C@H](O)[C@H](O)CN1Cc1ccccc1 [compound 26]"
observed_measurement = 3.53

[[record]]
molecule = "C[C@@H](O)[C@@H]1[C@H](O)[C@H](O)CN1Cc1ccc2ccccc2c1 [compound 28]"
observed_measurement = 4.11

[[record]]
molecule = "OC[C@@H](O)[C@H]1NC[C@@H](O)[C@H]1O [DIM, 1,4-dideoxy-1,4-imino-ᴅ-mannitol, reference compound]"
observed_measurement = 6.14


Proceed to the following item.
What the record says about C[C@@H](O)[C@H]1NC[C@@H](O)[C@H]1O [compound 29, 6-deoxy-DIM] : pIC50 is 6.49

###

# EXPERIMENTAL TARGET: GMIIb (Golgi α-mannosidase) (Drosophila melanogaster)
# ASSAY: α-mannosidase inhibition assay with pNP-Man substrate, GMIIb
# Type: biochemical
ENDPOINT LABEL: IC50 (µM)
Numbers only, in µM.

Simply: C[C@H]1NC[C@@H](O)[C@H]1O [compound 10] , GMIIb (Golgi α-mannosidase) (Drosophila melanogaster), IC50 = 525

###

# EXPERIMENTAL TARGET: LManII (lysosomal α-mannosidase) (Drosophila melanogaster)
Please note: Ki exactly at 2 µM is Condition not met. Only values below 2 µM get Condition met.

Illustrative cases are given below, each with its answer.
[[record]]
smiles_entry = "C[C@@H](O)[C@H]1NC[C@@H](O)[C@H]1O"
experimental_target = "LManII (lysosomal α-mannosidase) (Drosophila melanogaster)"
class_name = "Condition met"

[[record]]
smiles_entry = "C[C@@H](O)[C@@H]1[C@H](O)[C@H](O)CN1Cc1ccccc1"
experimental_target = "LManII (lysosomal α-mannosidase) (Drosophila melanogaster)"
class_name = "Condition not met"

[[record]]
smiles_entry = "C[C@@H](O)[C@@H]1[C@H](O)[C@H](O)CN1Cc1ccc2ccccc2c1"
experimental_target = "LManII (lysosomal α-mannosidase) (Drosophila melanogaster)"
class_name = "Condition not met"


For the next question, use this compound.
I'd appreciate it if you could check whether C[C@@H](O)[C@@H]1[C@H](O)[C@H](O)CN1Cc1ccc(I)cc1 has Ki smaller than 2 µM.
Condition not met

###

# EXPERIMENTAL TARGET: AMAN-2 (Golgi α-mannosidase II) (Caenorhabditis elegans)
# ASSAY: α-mannosidase inhibition assay with pNP-Man substrate, AMAN-2
# Type: biochemical
# CONDITION DESCRIPTION: 2 mM pNP-Man, pH 6.0, 37 °C; read-out: IC50 AMAN-2
Please note: IC50 exactly at 100 µM is F. Only values below 100 µM get T.

Illustrative cases are given below, each with its answer.
[[record]]
compound = "C[C@@H](O)[C@@H]1[C@H](O)[C@H](O)CN1Cc1ccc(I)cc1"
class_name = "T"

[[record]]
compound = "OC[C@@H](O)[C@H]1NC[C@@H](O)[C@H]1O [DIM, 1,4-dideoxy-1,4-imino-ᴅ-mannitol, reference compound]"
class_name = "T"

[[record]]
compound = "C[C@H](O)[C@H]1NC[C@@H](O)[C@H]1O"
class_name = "T"

[[record]]
compound = "C[C@H](O)[C@@H]1[C@H](O)[C@H](O)CN1Cc1ccc(I)cc1"
class_name = "F"


I'd appreciate it if you could check whether C[C@@H]1[C@H](O)[C@H](O)CN1Cc1ccccc1 has IC50 smaller than 100 µM.
F

I'd appreciate it if you could check whether C[C@@H](O)[C@@H]1[C@H](O)[C@H](O)CN1Cc1ccccc1 has IC50 smaller than 100 µM.
F

I'd appreciate it if you could check whether C[C@@H](O)[C@@H]1[C@H](O)[C@H](O)CN1Cc1ccc2ccccc2c1 has IC50 smaller than 100 µM.
T

I'd appreciate it if you could check whether C[C@@H](O)[C@H]1NC[C@@H](O)[C@H]1O has IC50 smaller than 100 µM.
T

I'd appreciate it if you could check whether C[C@H](O)[C@@H]1[C@H](O)[C@H](O)CN1Cc1ccc2ccccc2c1 has IC50 smaller than 100 µM.
F

I'd appreciate it if you could check whether C[C@@H]1[C@H](O)[C@H](O)CN1Cc1ccc(I)cc1 has IC50 smaller than 100 µM.
F

I'd appreciate it if you could check whether C[C@H](O)[C@@H]1[C@H](O)[C@H](O)CN1Cc1ccccc1 has IC50 smaller than 100 µM.
F

I'd appreciate it if you could check whether C[C@@H]1[C@H](O)[C@H](O)CN1Cc1ccc2ccccc2c1 has IC50 smaller than 100 µM.
F
